# maps each entry to its pEC50
Molecular target: T1, full-length untagged human GPNMB expressed on cells (human, UniProt Q14956 23-572)
T1 construct: also used here for GPNMB on human monocyte-derived macrophages in the functional assays; also called huGPNMB; Freestyle293-huGPNMB+
T1 sequence: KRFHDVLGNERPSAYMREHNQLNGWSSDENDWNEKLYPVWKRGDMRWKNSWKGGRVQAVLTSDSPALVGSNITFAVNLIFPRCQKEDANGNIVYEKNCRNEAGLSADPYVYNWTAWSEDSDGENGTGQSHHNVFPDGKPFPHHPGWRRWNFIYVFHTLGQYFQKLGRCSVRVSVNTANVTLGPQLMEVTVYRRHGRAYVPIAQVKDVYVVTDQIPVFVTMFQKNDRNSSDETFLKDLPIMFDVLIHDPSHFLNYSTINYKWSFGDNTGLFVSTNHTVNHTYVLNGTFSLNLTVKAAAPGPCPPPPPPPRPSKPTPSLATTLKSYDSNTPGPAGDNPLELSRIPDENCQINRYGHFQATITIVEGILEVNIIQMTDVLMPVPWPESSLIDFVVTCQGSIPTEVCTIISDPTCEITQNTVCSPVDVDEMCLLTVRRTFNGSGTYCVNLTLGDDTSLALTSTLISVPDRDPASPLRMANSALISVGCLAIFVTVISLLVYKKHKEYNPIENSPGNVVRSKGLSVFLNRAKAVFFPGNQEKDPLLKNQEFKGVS
Test: FACS titration, FS293-huGPNMB+ cells
pEC50: −log10 of the molar value.

| binder | pEC50 |
| --- | --- |
| anti-GPNMB antibody GPN-97 (antibody, V domains shown) VH: QVQLVQSGAEVKKPGASVKVSCKASGYTFTSYWMHWVRQAPGQGLEWMGEINPYDQRTNYAQKFQGRVTMTVDKSTSTVYMELSSLRSEDTAVYYCARSTGNYAWFAYWGQGTLVTVSS VL: DIVMTQSPDSLAVSLGERATINCKTSQDVSPSLAWYQQKPGQPPKLLIYSGSYRYTGVPDRFSGSGSGTDFTLTISSLQAEDVAVYYCQQHYSIPLTFGGGTKVEIK | 9.26 |
| anti-GPNMB antibody GPN-89 (antibody, V domains shown) VH: QVQLQESGPGLVKPSETLSLTCTVSGISITTGNYRWSWIRQPPGKGLEWIGYIDYSGTITYNPSLKSRVTITRDTSKNQFSLELSSVTAADTAVYYCARDLTHWYYDVWGQGTLVTVSS VL: DIVMTQSPDSLAVSLGERATINCKSSRSVDYYGIGFLNWYQQKPGQPPKLLIYATSHQGSGVPDRFSGSGSGTDFTLTISSLQAEDVAVYYCQQQKEVPPTFGGGTKVEIK | 9.78 |
